method: Oral bioavailability in Sprague-Dawley rat at 1.1 mg/kg measured at 15 mins to 24 hrs after drug challenge by LC-MS/MS analysis
Type: ADME, organism-based
conditions used: in vivo
property label: bioavailability (%)
Write the answer as a number in %, unit excluded.

Fill in: bioavailability of `CC(=O)NC[C@H]1O[C@@H](n2cc(Cc3ccc(C4CC4)cc3)c3c(Cl)cccc32)[C@H](O)[C@@H](O)[C@@H]1O` is ___
10

----------
method: Tmax in Sprague-Dawley rat at 1.1 mg/kg, po measured at 15 mins to 24 hrs post dose by LC-MS/MS analysis
Format: ADME, organism-based
conditions used: in vivo
property label: Tmax (h)
Write the answer as a number in h, unit excluded.

Fill in: Tmax of `CC(=O)NC[C@H]1O[C@@H](n2cc(Cc3ccc(C4CC4)cc3)c3c(Cl)cccc32)[C@H](O)[C@@H](O)[C@@H]1O` is ___
1.2
